Parameter: growth inhibition. Scope: all listed entries.
- Procedure text: NCI Yeast Anticancer Drug Screen. Data for the sgs1 mgt1 strain (AID 161);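 also: 0% = growth of cultures given vehicle only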
- Condition details: S. cerevisiae sgs1 mgt1 strain, at 50.0 µM, active compounds read high
- Description: Growth inhibition of yeast strains with defined genetic alterations is measured as a screen for potential anti-cancer activity. Selected strains with alterations in DNA damage repair or cell cycle control were exposed to compounds and growth inhibition was measured relative to vehicle treated controls. The strain used in this assay is sgs1 mgt1
This is part of a sample that, as a whole, favours compounds with a hit. Of some 79,000 tested, about 15% had one in any assay.
Readout name: growth inhibition (%)

> print(dat)
                                    molecule  reading.unit  value.observed
 1  COc1ccc(NS(=O)(=O)c2ccc(NCc3c4ccccc4nc4cc(Cl)ccc34)cc2)nn1             %            9.65
 2       CC1CCN(C(=O)C(c2ccccc2)c2ccccc2)CC1             %            -3.1
 3                CCOC(=O)/C(C#N)=C\NC(=O)NC             %             2.2
 4              CC(=O)N/C(=C\c1ccccc1)C(N)=O             %             1.2
 5  CCCCOc1ccc(/C=C/C(=O)OCC(CC)CCCC)cc1 (stereo unspecified)             %            12.4
 6  CC1CN1C(=O)Nc1cccc2c(NC(=O)N3CC3C)cccc12 (stereo unspecified)             %           -8.85
 7                              OCc1ccccc1CO             %           -9.25
 8  O=c1cc(C(O)C(O)C(O)C(O)CO)[nH]c(=O)[nH]1 (stereo unspecified)             %               9
 9  COc1cc(CC2c3cc(OC)c(OC)cc3CCN2C)c(Oc2cc3c(cc2OC)-c2c(OC)c(OC)c(OC)c4c2C(C3)N(C)CC4)cc1OC (stereo unspecified)             %           -7.05
10  [N-]=[N+]=C(C(=O)OCC#CCOC(=O)C(=[N+]=[N-])S(=O)(=O)c1ccccc1)S(=O)(=O)c1ccccc1             %            12.8
11              COc1ccc2oc(=N)c(C(N)=S)cc2c1             %           -3.45

====

- Procedure text: NCI Yeast Anticancer Drug Screen. Data for the bub3 strain (AID 167)
- Condition details: S. cerevisiae bub3 mutant strain, at 50.0 µM, active compounds read high
Compounds without any hit were thinned out: in the full panel of roughly 79,000, 15% have a hit.
This section presents compounds with their documented growth inhibition values.
Readout name: growth inhibition (%)

> print(dat)
                                    compound  reading.unit  value.observed
 1         O=C(Nn1c(=S)[nH][nH]c1=S)c1ccccc1             %           -14.5
 2  CCCCCC(C(O)C#N)C(O)(C(F)(F)F)C(F)(F)F (centres undefined)             %            86.2
 3  CCOC(=O)OC1CCC2(C)C(=CCC3C2CCC2(C)C(C(C)CCCC(C)C)CCC32)C1 (centres undefined)             %            4.25
 4             COC(=O)c1c(-c2ccccc2)cn(C)c1C             %             6.6
 5          CCOC(=O)/C=C(/O)CC(=O)OCC.[Cu+2]             %           -17.1
 6             O=C1NCCS(=O)(=O)N2CCC[C@@H]12             %           -19.6
 7             CCOC(=O)c1cn2ccccc2c1C(=O)OCC             %            -4.1
 8                        CN(C)c1ccccc1N(C)C             %           -1.35
 9           COc1ccc(C(=O)c2ccc(OC)cc2OC)cc1             %            3.05
10  O=C1NC(=O)C(c2ccc(Cl)cc2)(c2cccc(Cl)c2)N1 (centres undefined)             %             5.9
11                    CCN(CC)CCOc1ccc(OC)cc1             %            -5.2
12   Cc1cc2c(=O)cc(-c3ccccc3)oc2c(C(N)=O)c1C             %            14.8
13  CCCC1CC(=O)NC1C(=O)O (centres undefined)             %           -5.25
14                              N[n+]1ccccc1             %           -4.65
15          Nc1c(Cl)cc2c(c1Br)Cc1cc(F)ccc1-2             %            14.8
16              c1cc[n+](Cc2ccc3ccccc3n2)cc1             %            -2.2
17  OC(COc1cccc(C(F)(F)F)c1)CN1CCN(c2ccccc2)CC1 (centres undefined)             %            75.4
18  CCCCCCCCOC(=O)C(C)OC(C)=O (centres undefined)             %            12.3
19                           CC(C)=C1C=CC=C1             %             9.4
20                    NCC=C1C2CC3CC(C2)CC1C3             %           -13.7
21                             CCN(CC)CCOCCO             %            0.95
22  CCOc1ccc(/C=C2/NC(=S)N(CN3CCCCC3)C2=O)cc1             %            -1.5
23  O=C(O)c1c(F)c(F)c(-c2c(F)c(F)c(C(=O)O)c(C(=O)O)c2F)c(F)c1C(=O)O             %            0.55
24         COc1cc2cccc(N=Cc3ccccc3Cl)c2cc1OC             %            8.55
25  COc1ccc(NS(=O)(=O)c2ccc(NCc3c4ccccc4nc4cc(Cl)ccc34)cc2)nn1             %            -8.3
26               O=C1Nc2ncnc(Cl)c2Cc2ccccc21             %           -6.15
27      CN(C)c1ccc(/C=C(\C#N)c2cccc(F)c2)cc1             %             3.4
28   C1CCC2C3CCC(O3)C2C1 (centres undefined)             %           -39.1
29       OC1CCC2CCCCC2C1 (centres undefined)             %           -1.95
30  COC(=O)C1CSC(C)(C)N1 (centres undefined)             %           -7.35
31  CCOC(=O)C1=C(C)NC(C)=C(C(=O)OCC)C1c1c(C)noc1C             %            6.95
32  OC(Cc1ccccn1)c1ccccc1 (centres undefined)             %            9.35
33  O=c1[nH]c(=O)n(C2CC(O)C(CO)O2)c2ncncc12 (centres undefined)             %           -10.1
34  O=C(O)c1cc(C(=O)O)c(-c2ccccc2)c(-c2ccccc2)c1             %             1.4
35                    CCC(=O)OCC(C)COC(=O)CC             %            -8.4
36  CC(O)C1NC(=S)N(c2ccccc2)C1=O (centres undefined)             %           -14.4
37  COCC(Cl)/C(N)=N\S(=O)(=O)c1ccc(Cl)cc1 (centres undefined)             %            26.2
38              CCCCC(CCCC)(C(=O)NC)c1ccccc1             %            17.1
39                 CC(=O)Nc1ccc(OC(C)=O)cc1N             %            2.95
40      C[n+]1cccc(/C=C/c2ccc3cccc(O)c3n2)c1             %           -42.4
41  CCOC(=O)CCC1(C(=O)OCC)CCCCC1=O (centres undefined)             %           -25.4
42                  O=C(O)c1ccc(CC2CCCC2)cc1             %           -2.35
43                  CCN(CC)CCNc1ncnc2c1cnn2C             %           -20.9
44                          Cc1ccc(NCC#N)cc1             %            15.4
45                           C1CSCCSCCSCCSC1             %            31.9
46  CCn1c(=O)c2[nH]c(Cl)nc2n(CC(C)Cl)c1=O (centres undefined)             %            5.35
47  CC(=O)Nc1ccc(C(=O)NN2C(=O)C(Cl)C2c2ccc(Cl)cc2)cc1 (centres undefined)             %           -28.9
48  N#CCCC(C(=O)O)C(=O)CN1C(=O)c2ccccc2C1=O (centres undefined)             %             0.4
49  COc1ccc(Cc2ccc3[nH]c(=O)cc(C)c3c2)cc1S(=O)(=O)O             %           -17.7
50              Fc1ccc(-c2nc3ccccc3[nH]2)cc1             %            -4.4
51  CCC1OC(=O)C(CC)OC1=O (centres undefined)             %           -28.9
52  COc1ccc(S(=O)(=O)N2OC2c2ccccc2)cc1 (centres undefined)             %            1.65
53           CNC(=S)SC1=NS(=O)(=O)c2ccccc2N1             %           -9.75
54  O=C(c1ccccc1)[C@H]1Nc2ccc(Cl)cc2[C@H]2CCC[C@@H]12             %           -14.6
